# Tested on: HS 578T breast
# assay-protocol: NCI-60 one-dose screen, 48 h
# test-context: 10 µM unless noted
Compounds without any hit were thinned out: in the full panel of roughly 83,000, 20% have a hit. Activity calls are given as the source filed them. How the source made its calls: active means growth percent below 10; inactive means the rest.
In this exercise, the only acceptable responses are active, inactive

COc1ccc(CN2CCc3c(Sc4ccccc4)nc(N)nc3C2=O)c(OC)c1 :: inactive
Nc1cccc(Cl)c1N :: inactive
CN(C)CCOC(=O)Nc1ccccc1Cl :: inactive
COC(=O)c1cc2cc(-c3ccc(OC)cc3)cnc2[nH]1 :: inactive
COc1ccc(Nc2nc(N)nc3c2CCN(Cc2ccc(OC)cc2OC)C3=O)cc1 :: inactive
Nc1cc2c([nH]c[n+]2CC#CCCl)c(SCC#CCCl)n1 :: inactive
COc1ccc(-c2cn(-c3cccc(C(=O)/C=C/c4cc(OC)c(OC)c(OC)c4)c3)c(=O)[nH]2)cc1OC :: inactive
COc1ccc(CCNC2=CC(=O)CCC2)cc1OC :: inactive

I would be grateful if you could indicate the recorded call for COc1cc(/C(C#N)=C/c2ccc3c(c2OC)OCO3)cc2c1OCO2 .
active

I would be grateful if you could indicate the recorded call for C=C[C@@H]1C[C@H](O)Cc2c(C)cc(C)cc2N1 .
inactive

I would be grateful if you could indicate the recorded call for O=S(=O)(NCCNc1nccc(-c2c(-c3cccc(O)c3)nc3sccn23)n1)c1ccc(F)cc1 .
inactive

I would be grateful if you could indicate the recorded call for CC[N+](CC)=c1cc2oc3cc(N(C)C)ccc3nc-2cc1C .
inactive

I would be grateful if you could indicate the recorded call for COc1cc(/C=C/C(=O)c2cccc(-n3cc(-c4cc(OC)c(OC)c(OC)c4)[nH]c3=O)c2)cc(OC)c1OC .
inactive

I would be grateful if you could indicate the recorded call for O=C1c2ccccc2-c2ccccc2C1(Cl)Cl .
active

I would be grateful if you could indicate the recorded call for C=C(C)[C@@H]1C[C@H](O)Cc2cc(F)ccc2N1 .
inactive

---

Each record here notes measured growth.
# Test system: HOP-92 NSCLC
# assay-protocol: NCI-60 one-dose screen, 48 h (100 = growth as untreated, 0 = no growth, -100 = all killed)
# test-context: 10 µM unless noted
# Experimental: Growth inhibition of the HOP-92 human Non-Small Cell Lung tumor cell line is measured as a screen for anti-cancer activity. Cells are grown in 96 well plates and exposed to the test compound for 48 hours. Compounds are tested at a single concentration, which is 10^-5 M for most compounds. The reported endpoint is percent growth (GI% or GIPRCNT), where numbers from 0 - 100% represent growth inhibition, and numbers from -100% - 0 represent cell death. […]
The panel holds about 83,000 compounds, 20% with a hit somewhere; the sample as a whole holds those more often.
Quick note: give the figure in %, leave out the unit.

CC(C)(C)n1cc(-c2ccnc(NCCCNS(=O)(=O)c3cccc(F)c3)c2)c(-c2cccc(O)c2)n1 :: 79.5
O=c1[nH]c(-c2ccccc2)nc(CN2CCCCC2)c1O :: 92.8
CCC(=O)Oc1ccc(/C(=C(/C)Cc2cccc(OC)c2)c2ccc(OCCN(C)C)cc2)cc1 :: 67.2

Which growth is listed for COP(=O)(OC)/C(=N\NS(=O)(=O)c1ccc(C)cc1)c1ccccc1 ?
106

Which growth is listed for C=C(C)[C@@H]1CC[C@]2(C(=O)N3CCNCC3)CC[C@]3(C)[C@H](CC[C@@H]4[C@@]5(C)C/C(=C/c6ccncc6)C(=O)C(C)(C)[C@@H]5CC[C@]43C)[C@@H]12 ?
95.8

Which growth is listed for Cc1c(C(=N)C(C#N)C#N)c(=N)oc2c1ccc1ccccc12 ?
73.1

---

Each record here notes measured growth.
# Test system: HCC-2998 colon
# assay-protocol: NCI-60 one-dose screen, 48 h (100 = growth as untreated, 0 = no growth, -100 = all killed)
# test-context: 10 µM unless noted
This is part of a sample that, as a whole, favours compounds with a hit. Of some 83,000 tested, about 20% had one in any assay.
Quick note: give the figure in %, leave out the unit.

Which growth is listed for O=S(=O)(NCCCNc1nccc(-n2ccc3cccnc32)n1)c1ccc(Br)cc1 ?
121

Which growth is listed for c1ccc(-c2nc(N3CCNCC3)c3nc(-c4ccccc4)oc3n2)cc1 ?
-90.3

Which growth is listed for COc1cc(C(=O)/C=C/c2ccc3nc(-c4cc(F)cc(F)c4)sc3c2)cc(OC)c1OC ?
93.1

Which growth is listed for O=C([O][Sn]([O]C(=O)c1ccccn1)([c]1ccccc1)[c]1ccccc1)c1ccccn1 ?
88.3

Which growth is listed for Nc1nc(Nc2cc(Cl)cc(Cl)c2)nn1S(=O)(=O)c1ccc2ccccc2c1 ?
68.3

Which growth is listed for C=COC(=O)CCCCCCCCC ?
101

Which growth is listed for O=C1/C(=C/c2ccccc2)CN(C(=O)CCN2CCC(=NO)CC2)C/C1=C\c1ccccc1 ?
-65.5

Which growth is listed for CN(C)c1cccc2c(S(=O)(=O)/N=C(\N)Nc3nc4ccccc4s3)cccc12 ?
70.4

Which growth is listed for CC(=O)Nc1scc[n+]1Cc1ccccc1 ?
103

Which growth is listed for C=C(C)[C@@H]1C[C@@H]2Cc3cc(Cl)ccc3N1O2 ?
99.1

---

# System: NCI-H23 lung
# assay-protocol: NCI-60 one-dose screen, 48 h (100 = growth as untreated, 0 = no growth, -100 = all killed)
# test-context: 10 µM unless noted
About 83,000 compounds went through this panel and 20% of them were active in at least one assay; those are over-represented in the sample as a whole.
attribute-measured: growth (%)
Quick note: give the figure in %, leave out the unit.

COc1ccc(/C=C2\Oc3cc(OCCCN4CCCC4)ccc3C2=O)c(OC)c1 :: 87.9
COc1ccccc1CNCCCN1C(=O)c2ccc3c4c(ccc(c24)C1=O)C(=O)N(CCCNCCCCNCCCN)C3=O :: 1.96

Which growth is listed for O=c1cc(Cc2ccc([N+](=O)[O-])cc2)[nH]c(=O)[nH]1 ?
99.2

Which growth is listed for COc1cccc(-c2nc3sccn3c2-c2ccnc(NCCCNS(=O)(=O)c3ccc(F)cc3)c2)c1 ?
30.6

Which growth is listed for CN1C=CN(Cc2ccc(-c3ccccn3)nc2)[CH-]1.CN1C=CN(Cc2ccc(-c3ccccn3)nc2)[CH-]1.[Au+3] ?
36.3

Which growth is listed for COc1cc(-c2nn(-c3cccc(NC(=O)Nc4cccc(C(F)(F)F)c4)c3)cc2-c2ccncc2)ccc1Cl ?
-12.4

Which growth is listed for Cc1ccc(S(=O)(=O)c2nc(-c3ccccc3)oc2S(C)(=O)=O)cc1 ?
76.3

Which growth is listed for COc1ccc(-c2nc(-c3nc4cc(C)c(C)cc4[nH]3)cc3c2[nH]c2ccccc23)cc1 ?
60.1

Which growth is listed for CC(C)(C)n1cc(-c2ccnc(NCCCNS(=O)(=O)c3ccc(Br)cc3)c2)c(-c2cccc(O)c2)n1 ?
47.1

---

Each record here notes measured growth.
# Tested on: 786-0 renal
# assay-protocol: NCI-60 one-dose screen, 48 h (100 = growth as untreated, 0 = no growth, -100 = all killed)
# test-context: 10 µM unless noted
# Procedure: Cells are grown in 96 well plates and exposed to the test compound for 48 hours. Compounds are tested at a single concentration, which is 10^-5 M for most compounds. The reported endpoint is percent growth (GI% or GIPRCNT), where numbers from 0 - 100% represent growth inhibition, and numbers from -100% - 0 represent cell death. For example, a value of 40 represents 60% growth inhibition. A value of 0 means no net growth occurred over the course of the experiment. […]
About 83,000 compounds went through this panel and 20% of them were active in at least one assay; those are over-represented in the sample as a whole.
Quick note: give the figure in %, leave out the unit.

O=C(CCl)N(C1CCCCC1)C1CCCCC1 :: 99.3
Cn1ccc(=O)c(S(N)(=O)=O)c1 :: 103
Oc1ccccc1/C=N/NC(=S)NC1CC2C=CC1C2 (configuration not stated) :: 83.4
O=C(Nc1cccc(-n2cc(-c3ccncc3)c(-c3ccc(Cl)c(O)c3)n2)c1)Nc1ccc(Cl)c(C(F)(F)F)c1 :: 4.7
CCCCCCCCN(CCCCCCCC)CCCCCCNc1cc(OC)cc2cccnc12 :: 93.7
CC(NNC(C)c1ccccc1)c1ccccc1 (configuration not stated) :: 109
N=C(N)c1ccc(-c2ccc(-c3ccc4ccccc4c3)s2)cc1 :: 95
CCCCNC(=O)Oc1ccc(/C(=C(\C)c2ccccc2)c2ccc(OCCN(CC)CC)cc2)cc1 :: 67.3

Which growth is listed for Cc1ccc(-c2nc(C(Cl)Cl)n3nc(-c4ccccc4)cc3n2)cc1 ?
17.8

Which growth is listed for COc1ccc(/C=C2\CN(Cc3cn(CCNc4ccnc5cc(Cl)ccc45)nn3)C/C(=C\c3ccc(OC)c(OC)c3)C2=O)cc1OC ?
15.9

Which growth is listed for CC(C)(C)n1cc(-c2ccnc(NCCCNS(=O)(=O)c3ccc(Cl)cc3)c2)c(-c2cccc(O)c2)n1 ?
-35.2

Which growth is listed for C=C1CCC2C3(C)COC(c4ccc(N(C)C)cc4)OC3CCC2(C)C1C/C=C1/C(=O)OCC1O (configuration not stated) ?
96

Which growth is listed for CCOC(=O)C1=C(C)NC(C)=C(C(=O)OCC)C1(C)C ?
88.2

Which growth is listed for O=c1cc(Cc2ccc([N+](=O)[O-])cc2)[nH]c(=O)[nH]1 ?
98.9

Which growth is listed for O=S(=O)(CC(O)(c1ccccc1)c1ccccc1)CC(O)(c1ccccc1)c1ccccc1 ?
90.2

Which growth is listed for O=S(=O)(c1ccc(OCCO)cc1)c1ccc(OCCO)cc1 ?
112

Which growth is listed for COc1cccc(-c2cc3c(O)cc(C#N)cc3[nH]2)c1 ?
90.5

Which growth is listed for Cc1csc(NC(c2ccc(Br)cc2)c2c(C)nc3ccccn23)n1 (configuration not stated) ?
90.4

Which growth is listed for C=C(C)[C@@H]1C[C@H](O)Cc2cc(F)ccc2N1 ?
105

Which growth is listed for COc1ccc(-c2c(-c3cc(OC)c4c(c3)OCO4)noc2N)cc1 ?
14.5

Which growth is listed for Nc1nc(-c2ccccc2)c(CCCOc2ccc(NC(=O)CBr)cc2)c(=O)[nH]1 ?
115

Which growth is listed for O=C(CSc1nc2ccccc2[nH]1)Nc1ccc(-c2nc3ccccc3s2)c(Cl)c1 ?
-72.9
